src = patent US20220048967A1

Target: Pro-Link-tagged Human GLP-1R (human, UniProt P43220 24-463); note: reference of the scale not given here
Assay: cell-based or functional assay
Lab note - cut at 50% for hGLP1R B-Arrestin2 % Top: 1 if strictly below, 0 if not.

>>> class_assignment("XXEGTFTSDYSIXLDXKAQXEFIXYLIAGGPSSGAPPPS (D-Tyr1, Aib2, αMeL13, Orn16, K17 conjugated to (2-[2-(2-Amino-ethoxy)-ethoxy]-acetyl)2-(γ-Glu)-CO-(CH2)18-CO2H, Aib20, D-Glu24, C-terminal amide (NH2)) [Example 354]")
1
>>> class_assignment("FXEGTFTSDYSIXLDKKAQXEFIEYLIAGGPSSGAPPPS (not fully specified; Aib2, αMeL13, K17 conjugated to (2-[2-(2-Amino-ethoxy)-ethoxy]-acetyl)2-(γ-Glu)-CO-(CH2)18-CO2H, Aib20, C-terminal amide (NH2)) [Example 338]")
1
>>> class_assignment("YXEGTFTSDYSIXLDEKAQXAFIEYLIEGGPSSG (Aib2, αMeL13, K17 conjugated to (2-[2-(2-Amino-ethoxy)-ethoxy]-acetyl)2-(γ-Glu)-CO-(CH2)16-CO2H, Aib20, C-terminal amide (NH2)) [Example 303]")
1
>>> class_assignment("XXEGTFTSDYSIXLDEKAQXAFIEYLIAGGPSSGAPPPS (not fully specified; D-Tyr1, Aib2, αMeL13, K17 conjugated to (2-[2-(2-Amino-ethoxy)-ethoxy]-acetyl)2-(γ-Glu)-CO-(CH2)18-CO2H, Aib20, C-terminal amide (NH2)) [Example 341]")
1
>>> class_assignment("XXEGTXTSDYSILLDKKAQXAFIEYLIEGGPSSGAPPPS (D-Tyr1, Aib2, αMeF6, K17 conjugated to (2-[2-(2-Amino-ethoxy)-ethoxy]-acetyl)2-(γ-Glu)-CO-(CH2)18-CO2H, Aib20, C-terminal amide (NH2)) [Example 329]")
0
